# PROCEDURE DETAILS: Organ weights after subcutaneous administration in CD-1 mice (Example 6)
# Assay type: in vivo
# RUN PARAMETERS: end of study, 50 mg/kg subcutaneously twice a week for 7 weeks
Strand notation (5' to 3'): a small letter for the sugar, then the base; units joined by * are phosphorothioate-linked, units joined directly phosphodiester-linked; [ ] holds rarer units or linkages, { } end groups; capitals alone tell only the bases. k = constrained ethyl (cEt); [5mC] = 5-methylcytosine; d = 2'-deoxy (DNA)

>  <SUBSTANCE>
830027 (antisense kA*kA*k[5mC]*d[5mC]*dA*dT*dT*dT*dA*dT*d[5mC]*dT*dG*kG*kT*kG) [compound 830027]

>  <Organ weights, Spleen / g>
0.2

$$$$
>  <SUBSTANCE>
830121 (AGAATCAAGCCCTGGC; 3-10-3 cEt gapmer, further chemistry not given here) [compound 830121]

>  <Organ weights, Spleen / g>
0.2

$$$$
>  <SUBSTANCE>
798781 (CGTAAGATTCACAGCA; 3-10-3 cEt gapmer, further chemistry not given here) [compound 798781]

>  <Organ weights, Spleen / g>
0.1

$$$$
